Molecular target: T1, Aurora A_(D274N) kinase domain (human, UniProt O14965 122-403, D274N)
T1 construct: Aurora A kinase, human, kinase domain residues 122-403, kinase dead D274N; theoretical mass 33.8 kDa; Cloned into pHAT5 in frame with a C-terminal 6xHis-tag; also called kinase dead human Aurora A D274N mutant; source: E. coli BL21(DE3), purified (HisTrap HP, Superdex 75 SEC); not shown: His6, C-terminal, kept
T1 sequence (looked up): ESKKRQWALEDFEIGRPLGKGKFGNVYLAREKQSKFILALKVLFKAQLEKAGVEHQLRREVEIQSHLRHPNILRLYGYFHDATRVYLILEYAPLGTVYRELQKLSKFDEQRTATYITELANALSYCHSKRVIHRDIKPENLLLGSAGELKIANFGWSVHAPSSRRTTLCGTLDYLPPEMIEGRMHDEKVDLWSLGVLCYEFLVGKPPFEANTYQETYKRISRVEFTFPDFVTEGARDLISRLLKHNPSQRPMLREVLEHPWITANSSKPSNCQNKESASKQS
Experiment: ITC; itc200, 25°C, 10 mM HEPES pH 7.4, 500 mM NaCl, 0.05% P20; 50 μM titrant into 5 μM Aurora A D274N, 100 μM CK2β peptide or RAD-CK2β into 10 μM CK2α; single-site model
Conditions: both partners purified
READOUT LABEL: pKd
Answers are plain numbers, as −log10 of the molar value.

Entry under review: LSYSYDAPSDFINFSSLDDEGDTQNIDSWFEEKANLENLKGGGCQM (residue before the TPX2 stretch in the printed peptide; TPX2, human, residues 7-43; C-terminal extension of the printed peptide with the cysteine handle; Used free in ITC and immobilised through the cysteine on CM5 in SPR; also called TPX2 peptide; TPX-2 peptide; source: E. coli BL21(DE3), KSI fusion (pET31b), inclusion bodies, Ni-NTA, CNBr cleavage, reverse-phase HPLC) [linear TPX2_((7–43)) peptide] . Reported pKd?
6.94
